tested on: Escherichia coli TOP10; test: shrunken log2 fold change of peptide-encoding DNA abundance (4.5 h post-induction vs induction); higher = less antimicrobial activity (less host growth inhibition); conditions: time post-induction: 4.5 h; library: site-saturation at positions 5, 18, 19, 20;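 note: peptides expressed intracellularly from a pBAD plasmid library in pooled LB shake-flask culture, induced with 0.3% L-arabinose, DNA abundance read by NGS, three biological replicates, DESeq2 with apeglm shrinkage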
Experimental readout: shrunken log2 fold change
Please give only the number in your answer, with no unit.

Completed entries (count: 5):
RRIRIRPPRLPRPRPRPMFLPRP :: -0.624
RRIRARPPRLPRPRPRPEFMPRP :: 0.115
RRIRYRPPRLPRPRPRPGHAPRP :: 3.02
RRIRSRPPRLPRPRPRPSTEPRP :: -0.0608
RRIRKRPPRLPRPRPRPCLKPRP :: -0.0379

*Q* // query shrunken log2 fold change value for entry RRIRFRPPRLPRPRPRPKNAPRP
*A* -0.0814

*Q* // query shrunken log2 fold change value for entry RRIRVRPPRLPRPRPRPWMWPRP
*A* 0.091

*Q* // query shrunken log2 fold change value for entry RRIRPRPPRLPRPRPRPCVCPRP
*A* 0.0289

*Q* // query shrunken log2 fold change value for entry RRIRIRPPRLPRPRPRPRDDPRP
*A* 0.168

*Q* // query shrunken log2 fold change value for entry RRIRFRPPRLPRPRPRPWALPRP
*A* 0.00634

*Q* // query shrunken log2 fold change value for entry RRIRPRPPRLPRPRPRPFPQPRP
*A* 0.54

*Q* // query shrunken log2 fold change value for entry RRIRVRPPRLPRPRPRPCSGPRP
*A* -0.0235

*Q* // query shrunken log2 fold change value for entry RRIRDRPPRLPRPRPRPNSDPRP
*A* -0.272

*Q* // query shrunken log2 fold change value for entry RRIRHRPPRLPRPRPRPGTMPRP
*A* -0.0455

*Q* // query shrunken log2 fold change value for entry RRIRVRPPRLPRPRPRPRGYPRP
*A* -0.068

*Q* // query shrunken log2 fold change value for entry RRIRMRPPRLPRPRPRPGVGPRP
*A* 0.841

*Q* // query shrunken log2 fold change value for entry RRIRFRPPRLPRPRPRPGYKPRP
*A* -0.438

*Q* // query shrunken log2 fold change value for entry RRIRFRPPRLPRPRPRPDKLPRP
*A* -0.505

*Q* // query shrunken log2 fold change value for entry RRIRSRPPRLPRPRPRPRVEPRP
*A* 0.183

*Q* // query shrunken log2 fold change value for entry RRIRVRPPRLPRPRPRPDWPPRP
*A* 0.334

*Q* // query shrunken log2 fold change value for entry RRIRERPPRLPRPRPRPDDSPRP
*A* -0.435

*Q* // query shrunken log2 fold change value for entry RRIRHRPPRLPRPRPRPCVIPRP
*A* -0.0839
